experiment: Solubility estimation by aliquot addition and Clarity temperature cycling; details: methanol, 20 °C, organic solvent or mixture, thermodynamic from solid

[
  {
    "Compound": "CCc1nc2ccc(Cl)cn2c1C(=O)NCc1ccc(N2CCC(c3ccc(OC(F)(F)F)cc3)CC2)cc1 [Q203 free base]",
    "solubility": "< 25 mg/mL"
  }
]

----------
test: Approximate solubility of the free base by gravimetry method; format: physicochemical; settings: organic solvent or mixture, thermodynamic from solid; Ethyl Acetate (EA), RT
Measured property: solubility at 1 day

[
  {
    "Compound": "CCc1nc2ccc(Cl)cn2c1C(=O)NCc1ccc(N2CCC(c3ccc(OC(F)(F)F)cc3)CC2)cc1 [Q203 free base]",
    "Measured property": "solubility at 1 day",
    "Test value": "13 mg/mL"
  }
]

----------
test: Approximate solubility of the free base by gravimetry method; format: physicochemical; settings: organic solvent or mixture, thermodynamic from solid; Isopropyl Acetate (IPAC), RT
Measured property: solubility at 1 day (mg/mL)

[
  {
    "Molecule": "CCc1nc2ccc(Cl)cn2c1C(=O)NCc1ccc(N2CCC(c3ccc(OC(F)(F)F)cc3)CC2)cc1 [Q203 free base]",
    "Test value": 26
  }
]

----------
experiment: physchem; conditions: methanol (MeOH), 50 °C, organic solvent or mixture, thermodynamic from solid

[
  {
    "Molecule": "CCc1nc2ccc(Cl)cn2c1C(=O)NCc1ccc(N2CCC(c3ccc(OC(F)(F)F)cc3)CC2)cc1.Cc1ccc(S(=O)(=O)O)cc1.Cc1ccc(S(=O)(=O)O)cc1 [Form A]",
    "solubility at 3 days": "275 mg/mL"
  }
]

----------
test: Approximate solubility of the free base by gravimetry method; format: physicochemical; conditions: organic solvent or mixture, thermodynamic from solid; IPA or its mixture with water, 50° C.

[
  {
    "Compound": "CCc1nc2ccc(Cl)cn2c1C(=O)NCc1ccc(N2CCC(c3ccc(OC(F)(F)F)cc3)CC2)cc1 [Q203 free base]",
    "solubility at 1 day": "11 to 22 mg/mL"
  }
]

----------
experiment: Approximate solubility of the free base by gravimetry method; type: physicochemical; conditions: organic solvent or mixture, thermodynamic from solid; Tetrahydrofuran (THF), 50° C.

[
  {
    "Compound": "CCc1nc2ccc(Cl)cn2c1C(=O)NCc1ccc(N2CCC(c3ccc(OC(F)(F)F)cc3)CC2)cc1 [Q203 free base]",
    "Unit abbreviation": "mg/mL",
    "solubility at 1 day": 279
  }
]

----------
assay: Approximate solubility of the free base by gravimetry method; assay type: physicochemical; settings: organic solvent or mixture, thermodynamic from solid; Methyl Amine (MA), 50° C.
Measured property: solubility at 1 day (mg/mL)

[
  {
    "Compound": "CCc1nc2ccc(Cl)cn2c1C(=O)NCc1ccc(N2CCC(c3ccc(OC(F)(F)F)cc3)CC2)cc1 [Q203 free base]",
    "Test value": 94
  }
]

----------
assay: Solubility estimation by aliquot addition and Clarity temperature cycling; conditions: dichloromethane, 20 °C, organic solvent or mixture, thermodynamic from solid

[
  {
    "Compound": "CCc1nc2ccc(Cl)cn2c1C(=O)NCc1ccc(N2CCC(c3ccc(OC(F)(F)F)cc3)CC2)cc1 [Q203 free base]",
    "solubility": "169 to 253 mg/mL"
  }
]

----------
assay: physchem; settings: methanol (MeOH), organic solvent or mixture, thermodynamic from solid
Measured property: solubility at 3 days (mg/mL)

[
  {
    "Compound": "CCc1nc2ccc(Cl)cn2c1C(=O)NCc1ccc(N2CCC(c3ccc(OC(F)(F)F)cc3)CC2)cc1.Cc1ccc(S(=O)(=O)O)cc1.Cc1ccc(S(=O)(=O)O)cc1 [Form A]",
    "Measured property": "solubility at 3 days",
    "Test value": 126
  }
]

----------
assay: pKa analysis (UV-metric titration); format: physicochemical; conditions: methanol-water co-solvent, aqueous values by Yasuda-Shedlovsky extrapolation, 25.0-25.1 °C, 0.15 M KCl

[
  {
    "Compound": "CCc1nc2ccc(Cl)cn2c1C(=O)NCc1ccc(N2CCC(c3ccc(OC(F)(F)F)cc3)CC2)cc1 [Q203 free base]",
    "pKa": 3.7
  }
]

----------
experiment: Approximate solubility of the free base by gravimetry method; assay type: physicochemical; details: organic solvent or mixture, thermodynamic from solid; Methyl Amine (MA), RT
Measured property: solubility at 1 day (mg/mL)

[
  {
    "Compound": "CCc1nc2ccc(Cl)cn2c1C(=O)NCc1ccc(N2CCC(c3ccc(OC(F)(F)F)cc3)CC2)cc1 [Q203 free base]",
    "Measured property": "solubility at 1 day",
    "Test value": 38
  }
]

----------
assay: Solubility estimation by aliquot addition and Clarity temperature cycling; conditions: methyl tert-butyl ether, 20 °C, organic solvent or mixture, thermodynamic from solid

[
  {
    "Compound": "CCc1nc2ccc(Cl)cn2c1C(=O)NCc1ccc(N2CCC(c3ccc(OC(F)(F)F)cc3)CC2)cc1 [Q203 free base]",
    "solubility": "< 25.6 mg/mL"
  }
]

----------
test: physchem; conditions: ethanol (EtOH), 50 °C, organic solvent or mixture, thermodynamic from solid
Measured property: solubility at 3 days

[
  {
    "Compound": "CCc1nc2ccc(Cl)cn2c1C(=O)NCc1ccc(N2CCC(c3ccc(OC(F)(F)F)cc3)CC2)cc1.Cc1ccc(S(=O)(=O)O)cc1.Cc1ccc(S(=O)(=O)O)cc1 [Form A]",
    "Test value": "7000 µg/mL"
  }
]

----------
experiment: Approximate solubility of the free base by gravimetry method; assay type: physicochemical; settings: organic solvent or mixture, thermodynamic from solid; Acetone+5%water, RT
Measured property: solubility at 1 day (mg/mL)

[
  {
    "Molecule": "CCc1nc2ccc(Cl)cn2c1C(=O)NCc1ccc(N2CCC(c3ccc(OC(F)(F)F)cc3)CC2)cc1 [Q203 free base]",
    "Test value": 22
  }
]

----------
assay: Approximate solubility of the free base by gravimetry method; assay type: physicochemical; settings: organic solvent or mixture, thermodynamic from solid; EA+4%water, 50° C.
Measured property: solubility at 1 day (mg/mL)

[
  {
    "Molecule": "CCc1nc2ccc(Cl)cn2c1C(=O)NCc1ccc(N2CCC(c3ccc(OC(F)(F)F)cc3)CC2)cc1 [Q203 free base]",
    "Measured property": "solubility at 1 day",
    "Unit abbreviation": "mg/mL",
    "Test value": 55
  }
]

----------
Experiment: Approximate solubility of the free base by gravimetry method
Assay type: physicochemical
Conditions: organic solvent or mixture, thermodynamic from solid; IPA+5%water, 50° C.
Method: The objective of measuring solubility of free base was to identify potential solvents for salt formation process development. Approximate solubility of the free base was measured by gravimetry method. Excess solids were added to various solvents including some Class III solvents (ICH guideline) at RT and 50° C. Since the solubility in these solvents is generally low, it was decided to mix water with these solvents. […]

[
  {
    "Compound": "CCc1nc2ccc(Cl)cn2c1C(=O)NCc1ccc(N2CCC(c3ccc(OC(F)(F)F)cc3)CC2)cc1 [Q203 free base]",
    "Unit abbreviation": "mg/mL",
    "solubility at 1 day": 22
  }
]
